Target: Neuraminidase (Influenza A virus (A/Puerto Rico/8/1934(H1N1)))
Experiment: Inhibition of Influenza A PR/8/34 H1N1 virus neuraminidase activity by MUN-ANA substrate based fluorimetric assay
Parameters: unit not given here
MEASURED ATTRIBUTE: logIC50
Give bare numbers.

compound="COc1c(O)cc2oc(-c3ccc(O)cc3)cc(=O)c2c1O [HISPIDULIN]" recorded_number=1.14
compound="COc1cc(O)c2c(=O)c(O)c(-c3ccc(O)cc3)oc2c1 [RHAMNOCITRIN]" recorded_number=1.19

Please give logIC50 for each item listed below.
1. O=c1c(O)c(-c2ccc(O)cc2)oc2cc(O)cc(O)c12 [KAEMPFEROL]
2. O=c1c(-c2ccc(O)cc2)coc2cc(O)ccc12 [DAIDZEIN]
3. O=c1cc(-c2ccccc2)oc2cc(O)cc(O)c12 [CHRYSIN]
4. O=C1/C(=C\c2ccc(O)cc2)Oc2cc(O)ccc21
5. O=C1/C(=C/c2ccc(O)c(O)c2)Oc2cc(O)ccc21 [SULFURETIN]
6. O=c1c(-c2ccc(O)cc2)coc2cc(O)cc(O)c12 [GENISTEIN]
7. O=c1cc(-c2ccc(O)c(O)c2)oc2cc(O[C@@H]3O[C@H](CO)[C@@H](O)[C@H](O)[C@H]3O)cc(O)c12 [GALUTEOLIN]
8. C[C@@H]1O[C@@H](OC[C@H]2O[C@@H](Oc3c(-c4ccc(O)c(O)c4)oc4cc(O)cc(O)c4c3=O)[C@H](O)[C@@H](O)[C@@H]2O)[C@H](O)[C@H](O)[C@H]1O [RUTIN]

1. 1.23
2. 0.975
3. 1.06
4. 0.748
5. 0.903
6. 1.32
7. 1.33
8. 1.49

----------
Target: Neuraminidase (Influenza A virus (A/Puerto Rico/8/1934(H1N1))) (UniProt P03468)
Assay: Inhibition of Influenza A PR/8/34 H1N1 virus neuraminidase activity by MUN-ANA substrate based fluorimetric assay
Set-up: unit not given here
MEASURED ATTRIBUTE: logIC50

Before answering, review these 5 worked examples.
compound="O=c1c(O[C@H]2O[C@@H](CO)[C@H](O)[C@@H](O)[C@@H]2O[C@@H]2OC[C@@H](O)[C@H](O)[C@H]2O)c(-c2ccc(O)cc2)oc2cc(O)cc(O)c12 (stereo in doubt)" result=1.39
compound=O=c1cc(-c2ccc(O)cc2)oc2cc(O)c(O)c(O)c12 result=1.16
compound=O=c1cc(-c2ccc(Oc3c(O)cc4oc(-c5ccc(O)cc5)cc(=O)c4c3O)cc2)oc2cc(O)cc(O)c12 result=1.62
compound=COc1ccc(-c2cc(=O)c3c(O)c(Oc4ccc(-c5cc(=O)c6c(O)cc(OC)cc6o5)cc4)c(O[C@]4(C(=O)O)C[C@H](O)[C@@H](NC(C)=O)[C@H]([C@@H](O)[C@@H](O)CO)O4)cc3o2)cc1 result=1.28
compound=O=c1cc(-c2ccc(O)cc2)oc2cc(O)cc(O)c12 result=0.932

Please give logIC50 for each item listed below.
1. O=c1cc(-c2ccc(O)c(O)c2)oc2cc(O)cc(O)c12
2. O=C1/C(=C\c2ccccc2)Oc2cc(O)ccc21

0.984
1.23

----------
Target: Neuraminidase (Influenza A virus (A/Puerto Rico/8/1934(H1N1)), UniProt P03468)
Sequence (P03468 whole entry): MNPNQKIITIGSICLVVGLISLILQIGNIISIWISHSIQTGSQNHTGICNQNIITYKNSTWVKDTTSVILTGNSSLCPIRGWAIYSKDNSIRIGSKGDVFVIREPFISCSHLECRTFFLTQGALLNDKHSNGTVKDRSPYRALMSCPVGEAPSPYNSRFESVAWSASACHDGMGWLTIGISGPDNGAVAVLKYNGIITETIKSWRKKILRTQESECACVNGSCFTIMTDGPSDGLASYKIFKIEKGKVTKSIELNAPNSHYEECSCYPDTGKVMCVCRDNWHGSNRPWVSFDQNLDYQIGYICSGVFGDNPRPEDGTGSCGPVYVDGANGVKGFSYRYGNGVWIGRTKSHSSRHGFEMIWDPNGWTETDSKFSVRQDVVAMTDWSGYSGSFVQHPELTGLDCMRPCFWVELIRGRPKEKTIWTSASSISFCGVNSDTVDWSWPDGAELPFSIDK
Assignment: determine reported pIC50 for the given molecules.
Answers are plain numbers, as −log10 of the molar value.

smiles_code=O=C1/C(=C\c2ccccc2)Oc2cc(O)ccc21 measured_attribute=pIC50 recorded_number=4.14
smiles_code=O=c1c(O)c(-c2ccc(O)c(O)c2)oc2cc(O)cc(O)c12 measured_attribute=pIC50 recorded_number=4.23

Now consider the entry below.
Item "COc1cc(O)c2c(=O)c(O)c(-c3ccc(O)cc3)oc2c1" was tested on Neuraminidase (Influenza A virus (A/Puerto Rico/8/1934(H1N1)), UniProt P03468); the reported pIC50 is 4.29

----------
Target: Neuraminidase (Influenza A virus (A/Puerto Rico/8/1934(H1N1)))
Mark each entry Condition met if its IC50 sits below 50 µM, and Condition not met for all others.

molecule="O=C(Oc1cc(O)c2c(c1)OC(c1cc(O)c(O)c(O)c1)CC2)c1cc(O)c(O)c(O)c1 (stereo unspecified)" label_value="Condition met"
molecule=O=c1cc(-c2ccccc2)oc2cc(O)cc(O)c12 label_value="Condition met"
molecule=COc1ccc(-c2cc(=O)c3c(O)c(Oc4ccc(-c5cc(=O)c6c(O)cc(OC)cc6o5)cc4)c(O[C@]4(C(=O)O)C[C@H](O)[C@@H](NC(C)=O)[C@H]([C@@H](O)[C@@H](O)CO)O4)cc3o2)cc1 label_value="Condition met"
molecule="COc1c(O)cc(O)c2c(=O)cc(-c3ccc(O)cc3)oc12 [4'-HYDROXYWOGONIN]" label_value="Condition met"
molecule="O=c1c(O[C@H]2O[C@@H](CO)[C@H](O)[C@@H](O)[C@@H]2O[C@@H]2OC[C@@H](O)[C@H](O)[C@H]2O)c(-c2ccc(O)cc2)oc2cc(O)cc(O)c12 (stereo in doubt)" label_value="Condition met"

Record "O=c1c(-c2ccc(O)cc2)coc2cc(O)ccc12" : is its IC50 strictly below 50 µM?
Condition met

Record "O=c1cc(-c2ccc(O)cc2)oc2cc(O)cc(O)c12" : is its IC50 strictly below 50 µM?
Condition met

Record "O=c1c(O)c(-c2ccc(O)cc2)oc2cc(O)cc(O)c12" : is its IC50 strictly below 50 µM?
Condition not met

Record "O=C1/C(=C/c2ccc(O)c(O)c2)Oc2cc(O)ccc21" : is its IC50 strictly below 50 µM?
Condition met

Record "O=C1/C(=C\c2ccc(O)cc2)Oc2cc(O)ccc21" : is its IC50 strictly below 50 µM?
Condition met

Record "O=c1c(-c2ccc(O)cc2)coc2cc(O)cc(O)c12" : is its IC50 strictly below 50 µM?
Condition not met

Record "O=c1cc(-c2ccc(Oc3c(O)cc4oc(-c5ccc(O)cc5)cc(=O)c4c3O)cc2)oc2cc(O)cc(O)c12" : is its IC50 strictly below 50 µM?
Condition not met

Record "COc1c(O)cc2oc(-c3ccc(O)cc3)cc(=O)c2c1O" : is its IC50 strictly below 50 µM?
Condition met

Record "O=c1cc(-c2ccc(O)c(O)c2)oc2cc(O[C@@H]3O[C@H](CO)[C@@H](O)[C@H](O)[C@H]3O)cc(O)c12" : is its IC50 strictly below 50 µM?
Condition met

----------
pIC50 values recorded for Neuraminidase (Influenza A virus (A/Puerto Rico/8/1934(H1N1)), UniProt P03468)
Numbers only, as −log10 of the molar value.

smiles_code=O=c1cc(-c2ccc(O)cc2)oc2c([C@@H]3O[C@H](CO)[C@@H](O)[C@H](O)[C@H]3O)c(O)cc(O)c12 measured_on="Neuraminidase (Influenza A virus (A/Puerto Rico/8/1934(H1N1)), UniProt P03468)" measured_attribute=pIC50 recorded_number=4.32
smiles_code=O=c1c(O)c(-c2cc(O)c(O)c(O)c2)oc2cc(O)cc(O)c12 measured_on="Neuraminidase (Influenza A virus (A/Puerto Rico/8/1934(H1N1)), UniProt P03468)" measured_attribute=pIC50 recorded_number=4.08
smiles_code=COc1cc(O)c2c(=O)cc(-c3ccc(OC)c(-c4c(O)cc(O)c5c(=O)cc(-c6ccc(O)cc6)oc45)c3)oc2c1 measured_on="Neuraminidase (Influenza A virus (A/Puerto Rico/8/1934(H1N1)), UniProt P03468)" measured_attribute=pIC50 recorded_number=4.01

Now consider the entry below.
For this compound ( "O=c1cc(-c2ccc(O)c(O)c2)oc2cc(O)cc(O)c12" ), measured pIC50 is 4.47

----------
Assignment: determine reported logIC50 for the given compounds.
Target: Neuraminidase (Influenza A virus (A/Puerto Rico/8/1934(H1N1))) (UniProt P03468)
Assay: Inhibition of Influenza A PR/8/34 H1N1 virus neuraminidase activity by MUN-ANA substrate based fluorimetric assay
Parameters: unit not given here
Answers are plain numbers.

Before answering, review these 3 worked examples.
compound=O=c1cc(-c2ccc(O)cc2)oc2c([C@@H]3O[C@H](CO)[C@@H](O)[C@H](O)[C@H]3O)c(O)cc(O)c12 measured_attribute=logIC50 recorded_number=1.32
compound="COc1c(O)cc(O)c2c(=O)cc(-c3ccc(O)cc3)oc12 [4'-HYDROXYWOGONIN]" measured_attribute=logIC50 recorded_number=1.12
compound=O=c1c(O)c(-c2ccc(O)c(O)c2)oc2cc(O)cc(O)c12 measured_attribute=logIC50 recorded_number=1.25

Please give logIC50 for each item listed below.
1. COc1cc(O)c2c(=O)cc(-c3ccc(OC)c(-c4c(O)cc(O)c5c(=O)cc(-c6ccc(O)cc6)oc45)c3)oc2c1
2. O=C(Oc1cc(O)c2c(c1)OC(c1cc(O)c(O)c(O)c1)CC2)c1cc(O)c(O)c(O)c1 (stereo unspecified)
3. O=c1c(O)c(-c2cc(O)c(O)c(O)c2)oc2cc(O)cc(O)c12

1.74
1.2
1.42

These entries and their values trace back to ChEMBL document CHEMBL1157844.
